All figures here come from the array DNA melting data of Ke et al. (doi:10.1101/2024.01.08.574731).

# methodDescription: melting temperature; fluorescence melt of hairpins on a sequencing array, two-state fit, raised by 9.35 °C to match UV melts
# measurementContext: sodium 0.088 M
hey, just use Satisfied if measured Tm is less than 60 °C, otherwise Not satisfied

INSERT INTO assay_data (residuecodes, grouplabel) VALUES
  ('GTAGCCGAAAGGCGTTAC ((((((....)))..)))', 'Satisfied'),
  ('GGGCTTGGAAACGAGTCC ((.((.(....).)).))', 'Satisfied'),
  ('GCAAGGCGAAAGCTTGGC ((.(.((....)).).))', 'Satisfied'),
  ('GAGGTCGGAAACGGCCTC ((((.((....)).))))', 'Not satisfied'),
  ('CGGTACGGAAACGTTCCG (((.(((....))).)))', 'Satisfied'),
  ('GTTGCAGAAATGCAAC ((((((....))))))', 'Satisfied'),
  ('GCACTCCCGAAAGGGTGC (((..(((....))))))', 'Satisfied'),
  ('GATGTCGGAAACGATGTC ((..(((....)))..))', 'Satisfied'),
  ('GCGTTTTGACGC ((((....))))', 'Satisfied'),
  ('GCTCTGCGAAAGCGGCGC ((.(.((....)).).))', 'Satisfied'),
  ('GTCATTCGAAAGAAGAC (((.(((....))))))', 'Satisfied'),
  ('GAGCCCGAAAGGGACCTC ((((((....)))..)))', 'Satisfied'),
  ('GGAATCGGAAACGATCCC ((.((((....)))).))', 'Satisfied'),
  ('GAACGGCGAAAGCCTTTC (((.(((....))).)))', 'Satisfied'),
  ('GGATTCGAAAGAATCTCC ((((((....)))..)))', 'Satisfied'),
  ('GATCCATGGCTGGATC ((((((....))))))', 'Satisfied'),
  ('GATCAAAGGTTGATC ((((((...))))))', 'Satisfied'),
  ('GAATAGCCGAAAGGCTTC (((..(((....))))))', 'Satisfied'),
  ('GAAACCGAAAGGTTTC ((((((....))))))', 'Not satisfied'),
  ('GATCGGGCTGCCGATC ((((((....))))))', 'Satisfied'),
  ('GGTGGCGAAAGCCTACC ((((((....))).)))', 'Satisfied'),
  ('GCGTCGTGACGC ((((....))))', 'Not satisfied'),
  ('GCAATGCGAAAGCATGGC ((.((((....)))).))', 'Not satisfied'),
  ('GACAGCCGAAAGGCCGTC (((.(((....))).)))', 'Satisfied'),
  ('GAATCCGGAAACGAATTC ((((.((....)).))))', 'Satisfied'),
  ('GATCCGCCGCGGATC ((((((...))))))', 'Satisfied'),
  ('GCCCCGCGAAAGCGCGGC (((.(((....))).)))', 'Not satisfied'),
  ('GCTGGTGGAAACACCGGC ((.((((....)))).))', 'Not satisfied'),
  ('GGAGACGAAAGTCAATCC ((((((....)))..)))', 'Satisfied'),
  ('GATCGAAAGATCGATC ((((((....))))))', 'Satisfied'),
  ('GATCACCGCCGTGATC ((((((....))))))', 'Satisfied'),
  ('GCGGCGCGAAAGCGAAGC ((..(((....)))..))', 'Not satisfied'),
  ('GATCCTACCAGGATC ((((((...))))))', 'Satisfied'),
  ('TAACCGAAAGGTTA (((((....)))))', 'Satisfied'),
  ('GGCGACTCGAAAGAGGCC (((..(((....))))))', 'Satisfied'),
  ('GGTAGACGAAAGTCGACC (((.(((....))).)))', 'Satisfied');

* * *

# methodDescription: folding enthalpy; higher = less favourable; fluorescence melt of hairpins on a sequencing array, two-state fit
# measurementContext: sodium 0.088 M
folding enthalpy reference
measurementType: folding enthalpy (kcal/mol)

INSERT INTO assay_data (residuecodes, measurementtype, unittext, measuredvalue) VALUES
  ('GCGACAGTTCGC ((((....))))', 'folding enthalpy', 'kcal/mol', -17.4),
  ('GTTATCGAAAGATTAAC ((((((....))).)))', 'folding enthalpy', 'kcal/mol', -15.1),
  ('GTCAATCGAAAGATAGAC (((.(((....))).)))', 'folding enthalpy', 'kcal/mol', -28.2),
  ('GGCATCGAAAGATCCGCC ((((((....)))..)))', 'folding enthalpy', 'kcal/mol', -19.2),
  ('GCTACCGAAAGGTTGAGC ((((((....)))..)))', 'folding enthalpy', 'kcal/mol', -18.2),
  ('GTACTAGGAAACTAGCAC ((.((((....)))).))', 'folding enthalpy', 'kcal/mol', -22.1);

* * *

# methodDescription: folding enthalpy; higher = less favourable; fluorescence melt of hairpins on a sequencing array, two-state fit
# measurementContext: sodium 0.088 M
Reported folding enthalpy values for a set of sequences
measurementType: folding enthalpy (kcal/mol)

INSERT INTO measurements (residuecodes, measurementtype, measuredvalue) VALUES
  ('GCGTTGGGAAACCAGTGC ((..(((....)))..))', 'folding enthalpy', -24.1),
  ('GGAGGAGAAATCCTCC ((((((....))))))', 'folding enthalpy', -40.8),
  ('GTGCCTGGAAACGGGCAC (((((.(....).)))))', 'folding enthalpy', -36.8);

* * *

# methodDescription: melting temperature; fluorescence melt of hairpins on a sequencing array, two-state fit, raised by 9.35 °C to match UV melts
# measurementContext: sodium 0.088 M
measurementType: Tm (°C)

INSERT INTO measurements (residuecodes, measurementtype, measuredvalue) VALUES
  ('GATCATTATATGATC ((((((...))))))', 'Tm', 48.8),
  ('GTCCGCCGAAAGGCCGAC (((.(((....))).)))', 'Tm', 49.2),
  ('GGGCCCACGAAAGTGCCC (((..(((....))))))', 'Tm', 50.4);

* * *

# methodDescription: melting temperature; fluorescence melt of hairpins on a sequencing array, two-state fit, raised by 9.35 °C to match UV melts
# measurementContext: sodium 0.088 M
measurementType: Tm

INSERT INTO results (residuecodes, measuredvalue) VALUES
  ('GCAGCTGGAAACAGCCGC ((.((((....)))).))', '50.6 °C'),
  ('GCACTGTCGAAAGACTGC (((..(((....))))))', '39.4 °C'),
  ('GTCTGCGAAAGCAAAGAC ((((((....)))..)))', '50.1 °C'),
  ('GAGCAAGGAAACTCGCTC ((((.((....)).))))', '40.6 °C'),
  ('CGGTCGGAAACGAGACCG ((((((....)))..)))', '49.9 °C'),
  ('GCTCAACGAAAGTTAGC (((.(((....))))))', '41.1 °C'),
  ('CGGCACCGGAAACGGCCG (((..(((....))))))', '49.2 °C');

* * *

# methodDescription: melting temperature; fluorescence melt of hairpins on a sequencing array, two-state fit, raised by 9.35 °C to match UV melts
# measurementContext: sodium 0.088 M
Classification by Tm | ranges: Low = under 40 °C, Medium = from 40 °C up to 50 °C, High = 50 °C and over

INSERT INTO measurements (residuecodes, grouplabel) VALUES
  ('GGCTGCGAAAGCATGGCC ((((((....)))..)))', 'High'),
  ('GGATGGGAAACCATCC ((((((....))))))', 'High'),
  ('GGGCGTGGAAACACGTCC ((.((((....)))).))', 'High'),
  ('GATCCCGAAAGGGGTATC ((((((....)))..)))', 'Low'),
  ('GCTGAGGGAAACCTCAAC (.(((((....))))).)', 'Low'),
  ('GCGAGCGAAAGCTAACGC ((((((....)))..)))', 'High'),
  ('GAAGCGAAAGCTTC (((((....)))))', 'High'),
  ('GTCAAAGGAAACTTCGAC (((.(((....))).)))', 'Low'),
  ('GGCCAGCGAAAGCTGCC (((.(((....))))))', 'High'),
  ('GGCAAACGAAAGTTAGCC (((.(((....))).)))', 'High'),
  ('GGTGGAACGAAAGTTACC (((..(((....))))))', 'Low'),
  ('GATCGCTAGTGCGATC ((((((....))))))', 'High'),
  ('GAGACACCGAAAGGTCTC (((..(((....))))))', 'Medium'),
  ('GCATCGGAAACGATGC ((((((....))))))', 'High'),
  ('GGTTCGGGAAACTGGACC (((.(.(....).).)))', 'Medium'),
  ('GCTTTCTCGAAAGAGAGC (((..(((....))))))', 'Low'),
  ('GATCTTGCAGAAGATC ((((((....))))))', 'Medium'),
  ('GTGGTGCCGAAAGGCCAC (((..(((....))))))', 'Medium'),
  ('CGTAATCGGAAACGAACG (((..(((....))))))', 'Low'),
  ('CGGTCGGAAACGACGCCG ((((((....)))..)))', 'Low'),
  ('GGCCTGGGAAACCAGGTC (.(((((....))))).)', 'High'),
  ('GATCAGAACTCTGATC ((((((....))))))', 'Medium'),
  ('GGGACCGAAAGGTTTCCC ((((((....)))..)))', 'Medium'),
  ('GATCTTGGAAACGAGATC (((((.(....).)))))', 'Medium'),
  ('GCGCGGCGAAAGCGGTGC ((.(.((....)).).))', 'High'),
  ('GCGGCGCGAAAGCACGGC ((.(.((....)).).))', 'High'),
  ('GTGATGCGAAAGCACAC (((.(((....))))))', 'High'),
  ('GCTCCGCGAAAGCTGAGC ((((.((....)).))))', 'High'),
  ('GGCCACGAAAGTGTGCC ((((((....))).)))', 'High'),
  ('GCAATCGAAAGATTATGC ((((((....)))..)))', 'Low');
